# maps each entry to its refractive index
- assay info: refractive index (Na D-line) (dimensionless)
- settings: 298.15 K; 101.33 kPa; Liquid; Standard Abbe refractometry
Lab note: record just the number, no unit beside it.

Q: Record request: refractive index value, item COCCOCCOC
Result: 1.4057

###

# maps each entry to its refractive index
- assay info: refractive index (Na D-line) (dimensionless)
- settings: 298.15 K; 101.33 kPa; Liquid; Standard Abbe refractometry
Lab note: record just the number, no unit beside it.

Example results:
[[record]]
compound = "CCCCCC [hexane]"
experimental_readout = "refractive index"
value_measured = 1.3724

[[record]]
compound = "CC(C)=O [acetone]"
experimental_readout = "refractive index"
value_measured = 1.3562

[[record]]
compound = "C=CCCCC [hex-1-ene]"
experimental_readout = "refractive index"
value_measured = 1.3853


Q: Record request: refractive index value, item O=C1CCCCC1 [cyclohexanone]
Result: 1.4498

Q: Record request: refractive index value, item C1CCCCC1 [cyclohexane]
Result: 1.4236

Q: Record request: refractive index value, item Cc1ccccc1 [toluene]
Result: 1.4942
